testDescription: CaMKII Cell-Based Activity: CaMKII activity in neonatal rat ventricular myocytes (NRVM) was measured by monitoring the phosphorylation level of phospholamban using high-content imaging. NRVMs were plated in a clear bottom 384-well plate in medium supplemented with 10% fetal bovine serum (FBS) and incubated at 37° C., 5% CO2 overnight. The medium was changed to a serum-free medium and compounds were dosed to the cells. The cells were incubated at 37° C., 5% CO2 for 4 hours and were then treated with 100 nM ATX-II (Alomone Labs) to activate CaMKII. 10 minutes after the addition of ATX-II, the cells were fixed with 4% formaldehyde followed by permeabilization with 0.1% triton X100. The fixed cells were stained with an anti-phospho-phospholamban primary antibody (Santa Cruz Biotechnology) and an Alexa488-labeled anti-rabbit IgG secondary antibody (Life Technologies Corporation) as well as Hoechst 33342 (Life Technologies Corporation). The cells were imaged using an ArrayScan VTI (Cellomics) and analyzed for cells containing a positive fluorescent signal at 485 nm, reported as % responder. The % responders were plotted against the compound concentration to determine the compounds EC50.
Listing of recorded EC50 by entry.
Write the number in nM without appending the unit.

{"columns": ["compound", "EC50, nM"],
 "data": [
  ["CCN(CC)[C@@H](C)CNC(=O)c1cc(-c2cnn3ccc(-c4cccs4)nc23)nc(N2CCNC(=O)C2)c1", 96]
]}

Which EC50 value is on record for CC(C)NC(CNC(=O)c1ccnc(-c2cnn3ccc(-c4ccccc4)nc23)c1)C(C)C (configuration not stated) ?
152

Entry to check: CCN[C@@H](C)CNC(=O)c1cc(CC)nc(-c2cnn3ccc(-c4ccccc4)nc23)c1
170

Next up: CCN(CC)[C@@H](C)CNC(=O)c1cc(-c2cnn3ccc(-c4cccs4)nc23)nc(N2CCC[C@H]2CO)c1
112

Would you kindly repeat that for CCN(CCN)C(=O)c1ccnc(-c2cnn3ccc(-c4ccccc4)nc23)c1 ?
169

Try this compound next: CCN(CC)[C@@H](C)CNC(=O)c1cc(-c2cnn3ccc(-c4cccs4)nc23)nc(N2CC(O)C2)c1
17.7

====

testDescription: CaMKII Cell-Based Activity: CaMKII activity in neonatal rat ventricular myocytes (NRVM) was measured by monitoring the phosphorylation level of phospholamban using high-content imaging. NRVMs were plated in a clear bottom 384-well plate in medium supplemented with 10% fetal bovine serum (FBS) and incubated at 37° C., 5% CO2 overnight. The medium was changed to a serum-free medium and compounds were dosed to the cells. The cells were incubated at 37° C., 5% CO2 for 4 hours and were then treated with 100 nM ATX-II (Alomone Labs) to activate CaMKII. 10 minutes after the addition of ATX-II, the cells were fixed with 4% formaldehyde followed by permeabilization with 0.1% triton X100. The fixed cells were stained with an anti-phospho-phospholamban primary antibody (Santa Cruz Biotechnology) and an Alexa488-labeled anti-rabbit IgG secondary antibody (Life Technologies Corporation) as well as Hoechst 33342 (Life Technologies Corporation). The cells were imaged using an ArrayScan VTI (Cellomics) and analyzed for cells containing a positive fluorescent signal at 485 nm, reported as % responder. The % responders were plotted against the compound concentration to determine the compounds EC50.
Reported log10 EC50 by item:
Please be aware that the numbers have been log10-transformed from EC50 in µM.

Below, 5 compounds whose answers are already recorded.
{"columns": ["compound", "log10 EC50"],
 "data": [
  ["CCN(CC)[C@@H](C)CNC(=O)c1cc(NCC(N)=O)nc(-c2cnn3ccc(-c4cccs4)nc23)c1", -0.51],
  ["COC1CN(c2cc(C(=O)N3CC4CCC(C3)NC4)cc(-c3cnn4ccc(-c5cccs5)nc34)n2)C1 (centres undefined)", -1.20],
  ["CCN(CC)[C@@H](C)CNC(=O)c1cc(-c2cnn3ccc(-c4cccs4)nc23)nc(C(C)C)c1", -1.09],
  ["CCN(CC)[C@@H](CO)CNC(=O)c1ccnc(-c2cnn3ccc(-c4ccccc4)nc23)c1", -1.21],
  ["COC1CN(c2cc(C(=O)N3C4CC[C@@H]3CCNC4)cc(-c3cnn4ccc(-c5ccccc5)nc34)n2)C1", -0.57]
]}

# get_value(readout='log10 EC50', item= CCN(CC(F)F)[C@@H](C)CNC(=O)c1ccnc(-c2cnn3ccc(-c4cccs4)nc23)c1 )
-0.71

Thanks! And CCN(CC)[C@@H](C)CNC(=O)c1cc(-c2cnn3ccc(-c4cccs4)nc23)nc(N2CC(F)(F)C2)c1 ?
-1.76

// same read-out, input: O=C(NC[C@H]1CCN1)c1ccnc(-c2cnn3ccc(-c4cccs4)nc23)c1
-0.90

Note, next up: O=C(c1ccnc(-c2cnn3ccc(-c4ccccc4)nc23)c1)N1CCCC12CCCNC2 (centres undefined)
-2.09

====

testDescription: CaMKII Cell-Based Activity: CaMKII activity in neonatal rat ventricular myocytes (NRVM) was measured by monitoring the phosphorylation level of phospholamban using high-content imaging. NRVMs were plated in a clear bottom 384-well plate in medium supplemented with 10% fetal bovine serum (FBS) and incubated at 37° C., 5% CO2 overnight. The medium was changed to a serum-free medium and compounds were dosed to the cells. The cells were incubated at 37° C., 5% CO2 for 4 hours and were then treated with 100 nM ATX-II (Alomone Labs) to activate CaMKII. 10 minutes after the addition of ATX-II, the cells were fixed with 4% formaldehyde followed by permeabilization with 0.1% triton X100. The fixed cells were stained with an anti-phospho-phospholamban primary antibody (Santa Cruz Biotechnology) and an Alexa488-labeled anti-rabbit IgG secondary antibody (Life Technologies Corporation) as well as Hoechst 33342 (Life Technologies Corporation). The cells were imaged using an ArrayScan VTI (Cellomics) and analyzed for cells containing a positive fluorescent signal at 485 nm, reported as % responder. The % responders were plotted against the compound concentration to determine the compounds EC50.
measurementType: EC50 (nM)
Reply with just the number (in nM).

// solved cases for EC50 follow
{"columns": ["compound", "scaleUnit", "EC50"],
 "data": [
  ["CCN(CC)[C@@H](C)CNC(=O)c1cc(NCCC(C)(C)O)nc(-c2cnn3ccc(-c4cccs4)nc23)c1", "nM", 22.3],
  ["CCN1C[C@@H](F)C[C@H]1CNC(=O)c1ccnc(-c2cnn3ccc(-c4cccs4)nc23)c1", "nM", 53.4],
  ["CCN(CC)[C@@H](C)CNC(=O)c1cc(NCc2cc[nH]n2)nc(-c2cnn3ccc(-c4cccs4)nc23)c1", "nM", 54.3],
  ["CCN[C@@H](C)CNC(=O)c1cc(-c2cnn3ccc(-c4ccccc4)nc23)nc(C2CC2)c1", "nM", 15.3]
]}

Give its EC50 value. Item: CCN(CC)[C@@H](C)CNC(=O)c1cc(-c2cnn3ccc(-c4cccs4)nc23)nc(N2CC(NS(=O)(=O)Cc3ccon3)C2)c1
27

Lookup CCN(CC)[C@@H](C)CNC(=O)c1cc(OC[C@H]2CCCO2)nc(-c2cnn3ccc(-c4cccs4)nc23)c1
27.8

Next entry: CCN(CC)CCNC(=O)c1cc(-c2cnn3ccc(-c4cccs4)nc23)nc(N2CC[C@H]2C(=O)NC)c1
34.7

And CCC(CNC(=O)c1ccnc(-c2cnn3ccc(-c4ccccc4)nc23)c1)NCC1CC1 (stereo not drawn) ?
76.7

====

testDescription: CaMKII Cell-Based Activity: CaMKII activity in neonatal rat ventricular myocytes (NRVM) was measured by monitoring the phosphorylation level of phospholamban using high-content imaging. NRVMs were plated in a clear bottom 384-well plate in medium supplemented with 10% fetal bovine serum (FBS) and incubated at 37° C., 5% CO2 overnight. The medium was changed to a serum-free medium and compounds were dosed to the cells. The cells were incubated at 37° C., 5% CO2 for 4 hours and were then treated with 100 nM ATX-II (Alomone Labs) to activate CaMKII. 10 minutes after the addition of ATX-II, the cells were fixed with 4% formaldehyde followed by permeabilization with 0.1% triton X100. The fixed cells were stained with an anti-phospho-phospholamban primary antibody (Santa Cruz Biotechnology) and an Alexa488-labeled anti-rabbit IgG secondary antibody (Life Technologies Corporation) as well as Hoechst 33342 (Life Technologies Corporation). The cells were imaged using an ArrayScan VTI (Cellomics) and analyzed for cells containing a positive fluorescent signal at 485 nm, reported as % responder. The % responders were plotted against the compound concentration to determine the compounds EC50.
Form field: EC50 (one value per entry).
Reply with just the number (in µM).

{"columns": ["molecule", "measurementType", "obsValue"],
 "data": [
  ["CCN(CC)[C@@H](C)CNC(=O)c1cc(-c2cnn3ccc(-c4ccc(F)s4)nc23)nc(N2CC[C@H]2C(=O)NC)c1", "EC50", 0.01]
]}

What value of EC50 has been reported for the following molecule? CCCNC(CC)CNC(=O)c1ccnc(-c2cnn3ccc(-c4ccccc4)nc23)c1 (centres undefined)
0.00815

Another molecule to look at: CCC(CNC(=O)c1cc(-c2cnn3ccc(-c4cccs4)nc23)nc(N2CC[C@H]2C(=O)NC)c1)N(CC)CC (some centres undefined)
0.0368

Item: CCN(CC)[C@@H](C)CNC(=O)c1cc(N[C@H](C)C(=O)NC)nc(-c2cnn3ccc(-c4cccs4)nc23)c1
0.147

And then CCN(CC)CCNC(=O)c1cc(-c2cnn3ccc(-c4cccs4)nc23)nc(N2CC(C)(O)C2)c1 , what is it?
0.0537

Please do the same for CCN(CC)[C@@H](C)CNC(=O)c1cc(OCCN2CCOCC2)nc(-c2cnn3ccc(-c4cccs4)nc23)c1 as well.
0.0868

Please do the same for CCN(CC)[C@@H](C)CNC(=O)c1cc(O[C@@H]2CCOC2)nc(-c2cnn3ccc(-c4cccs4)nc23)c1 as well.
0.0662

Follow-up item: CCN(CC)[C@@H](C)CNC(=O)c1cc(-c2cnn3ccc(-c4cccs4)nc23)nc(N2CC[C@H]2C(=O)N2CC3CC3C2)c1 (some centres undefined)
0.0339

Next molecule: CC(C)(C)c1cc(C(=O)N2CCCC[C@@H]2CN)cc(-c2cnn3ccc(-c4ccccc4)nc23)n1
0.0466

Quick one: CCN(CC)[C@@H](C)CNC(=O)c1cc(NC2COC2)nc(-c2cnn3ccc(-c4cccs4)nc23)c1
7.29

Please do the same for NC[C@@H]1CCCCN1C(=O)c1cc(Cl)nc(-c2cnn3ccc(-c4ccccc4)nc23)c1 as well.
0.213

Check CCN(CC)[C@@H](C)CNC(=O)c1cc(-c2cnn(C3COC3)c2)nc(-c2cnn3ccc(-c4cccs4)nc23)c1 too.
0.0123

# iterate: CCN(CC)[C@@H](C)CNC(=O)c1cc(OCCOC)nc(-c2cnn3ccc(-c4cccs4)nc23)c1
0.032

Subsequent entry: C[C@@H](CNC(=O)c1ccnc(-c2cnn3ccc(-c4ccccc4)nc23)c1)NCc1ncccn1
0.779

Cool, now CCN(CC)[C@@H](C)CNC(=O)c1cc(-c2c(C)n[nH]c2C)nc(-c2cnn3ccc(-c4cccs4)nc23)c1
0.00937

Moving on to the next molecule: C[C@@H](CNC(=O)c1ccnc(-c2cnn3ccc(-c4cccs4)nc23)c1)NCC(F)(F)F
0.717

Hey, just so you know, these numbers are from ChEMBL document CHEMBL5725801.
